Molecular target: immunoproteasome LMP7/B5i subunit (Homo sapiens)
Experiment: Caliper-based proteasome enzymatic activity assay, LMP7
Conditions: human recombinant immunoproteasome 0.3 nM, FAM peptide substrate 1 μM, rt 3 h
reported.metric: IC50 (nM)

Reference set, count: 3
molecule	display.unit	IC50
CN(C)C(=O)C(C#N)=Cc1ccc(F)c(OCCC(=O)N[C@@H](Cc2ccccc2)B(O)O)c1	nM	3
N#CC(=Cc1cccc(CCOC(=O)N[C@@H](Cc2ccccc2)B(O)O)c1)c1ccc(C#N)cn1	nM	1.6
N#CC(=Cc1cccc(OCCC(=O)N[C@@H](Cc2ccccc2)B(O)O)c1F)c1ccccn1	nM	8.5

a = C[C@H]1COC[C@H](C)N1C(=O)C(C#N)=Cc1cccc(CCOC(=O)N[C@@H](Cc2ccccc2)B(O)O)c1
b = CC(C)NC(=O)C(C#N)=Cc1cccc(OCCC(=O)N[C@@H](Cc2ccccc2)B(O)O)c1
Input: Could you tell me which of these two has the smaller IC50 figure? First: a Second: b Answer by quoting the chosen item's label.
Output: a

###

Biological target: immunoproteasome LMP2 subunit (Homo sapiens)
Assay: Caliper-based proteasome enzymatic activity assay, LMP2
Settings: human recombinant immunoproteasome 0.3 nM, FAM peptide substrate 1 μM, rt 2 h
reported.metric: IC50 (nM)

molecule	reported.metric	display.unit	experimental.value
CC(C)(C)NC(=O)C(C#N)=Cc1cccc(OCCC(=O)N[C@@H](Cc2ccccc2)B(O)O)c1	IC50	nM	160

A = N#CC(=Cc1cccc(OCCC(=O)N[C@@H](Cc2ccccc2)B(O)O)c1)C(=O)N1CCN(C2COC2)CC1
B = N#CC(=Cc1cccc(CCOC(=O)N[C@@H](Cc2ccccc2)B(O)O)c1)c1ncccn1
C = N#CC(=Cc1ccc(F)c(OCCC(=O)N[C@@H](Cc2ccccc2)B(O)O)c1)c1ccccn1
D = CNC(=O)C(C#N)=Cc1cccc(OCCC(=O)N[C@@H](Cc2ccccc2)B(O)O)c1
E = CC1(C)COCCN1C(=O)C(C#N)=Cc1cccc(CCOC(=O)N[C@@H](Cc2ccccc2)B(O)O)c1
Input: Put the items in order so that reported IC50 rises from first to last. A ranking is expressed here by listing the labels in the requested order.
Output: C, D, A, B, E

###

Target: constitutive proteasome β5c subunit (Homo sapiens, UniProt P28074)
Assay: Caliper-based proteasome enzymatic activity assay, β5c
Details: human recombinant constitutive proteasome 0.3 nM, FAM peptide substrate 1 μM, rt 3 h
reported.metric: IC50 (nM)

Reference set, count: 2
molecule	IC50, nM
CC(C)(C)NC(=O)C(C#N)=Cc1cccc(COC(=O)N[C@@H](Cc2ccccc2)B(O)O)c1	3680
CN(C)C(=O)C(C#N)=Cc1cccc(COC(=O)N[C@@H](Cc2ccccc2)B(O)O)c1	3240

A = Cc1ccc(C[C@H](NC(=O)OCCc2cccc(C=C(C#N)C(=O)N3C4CCC3COC4)c2)B(O)O)cc1
B = CN(C)C(=O)C(C#N)=Cc1cccc(OCCC(=O)N[C@@H](Cc2ccccc2)B(O)O)c1F
Input: Hi, I'm comparing A with B and wondering which one has the bigger number for IC50. Any idea? Answer by quoting the chosen item's label.
Output: A

###

Biological target: constitutive proteasome β5c subunit (Homo sapiens, UniProt P28074)
Assay: Caliper-based proteasome enzymatic activity assay, β5c
Conditions: human recombinant constitutive proteasome 0.3 nM, FAM peptide substrate 1 μM, rt 3 h
reported.metric: IC50 (nM)

Reference set, count: 5
molecule	display.unit	IC50
CC(C)(C)NC(=O)C(C#N)=Cc1cccc(OCCC(=O)N[C@@H](CCc2ccccc2)B(O)O)c1	nM	310
CC(C)(C)NC(=O)C(C#N)=Cc1cccc(OCCC(=O)N[C@@H](Cc2coc3ccccc23)B(O)O)c1	nM	4
Cc1ccc(C[C@H](NC(=O)NCCc2cccc(C=C(C#N)c3ccccn3)c2)B(O)O)cc1	nM	2150
CC(C)(C)NC(=O)C(C#N)=Cc1ccc(F)c(OCCC(=O)N[C@@H](Cc2ccccc2)B(O)O)c1	nM	85
N#CC(=Cc1cccc(CCOC(=O)N[C@@H](Cc2ccccc2)B(O)O)c1)c1ccccn1	nM	320

P = Cc1ccc(C[C@H](NC(=O)OCCc2cccc(C=C(C#N)c3ccc(C(F)(F)F)cn3)c2)B(O)O)cc1
Q = CN(C)C(=O)C(C#N)=Cc1cccc(COCC(=O)N[C@@H](Cc2ccccc2)B(O)O)c1
Input: Hi, I'm comparing P with Q and wondering which one has the bigger number for IC50. Any idea? Answer by quoting the chosen item's label.
Output: Q
(Q: 1130 nM, P: 438 nM)

P = N#CC(=Cc1cccc(CCOC(=O)N[C@@H](Cc2ccccc2)B(O)O)c1)c1cnccn1
Q = N#CC(=Cc1ccc2c(c1)CN(CC(=O)N[C@@H](Cc1ccccc1)B(O)O)CC2)c1ccccn1
R = CCN(CC)C(=O)C(C#N)=Cc1cccc(CCNC(=O)N[C@@H](Cc2coc3ccccc23)B(O)O)c1
S = CCN(C(=O)C(C#N)=Cc1cccc(CCOC(=O)N[C@@H](Cc2ccccc2)B(O)O)c1)C(C)(C)C
Input: Please list the entries, largest IC50 first. A ranking is expressed here by listing the labels in the requested order.
Output: S, P, R, Q

P = N#CC(=Cc1cccc(OCCC(=O)N[C@@H](CCc2ccccc2)B(O)O)c1)c1ccccn1
Q = CN1CCN(C(=O)C(C#N)=Cc2cccc(OCCC(=O)N[C@@H](Cc3ccccc3)B(O)O)c2)CC1
Input: Hi, I'm comparing P with Q and wondering which one has the bigger number for IC50. Any idea? Answer by quoting the chosen item's label.
Output: P
